Target: EP4 (Homo sapiens (Human), UniProt P35408)
Sequence (P35408 whole entry): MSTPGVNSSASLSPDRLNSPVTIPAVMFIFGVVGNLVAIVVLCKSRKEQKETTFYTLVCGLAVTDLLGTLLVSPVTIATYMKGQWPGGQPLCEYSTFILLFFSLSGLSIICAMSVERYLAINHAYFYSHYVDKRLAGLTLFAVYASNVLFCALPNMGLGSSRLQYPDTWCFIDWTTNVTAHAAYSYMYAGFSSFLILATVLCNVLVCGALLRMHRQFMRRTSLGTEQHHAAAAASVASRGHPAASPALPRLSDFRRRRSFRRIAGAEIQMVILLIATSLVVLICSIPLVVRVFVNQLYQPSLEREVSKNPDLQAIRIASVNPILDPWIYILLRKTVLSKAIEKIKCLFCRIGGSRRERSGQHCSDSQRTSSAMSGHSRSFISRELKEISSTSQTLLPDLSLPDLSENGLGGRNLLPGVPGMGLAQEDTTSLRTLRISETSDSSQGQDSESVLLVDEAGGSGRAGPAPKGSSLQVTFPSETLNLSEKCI
Experiment: hEP4 cAMP assay (BT549 breast cancer cells, HTRF cAMP)
Assay type: cell-based
Conditions: antagonistic activity; mean values where measured multiple times
The molecules listed here are annotated with their IC50.

CPD_SMILES	IC50, nM
CCOc1cc(-c2cc(NCCn3c(C)cc4ccccc43)ncn2)ccc1-c1nnn[nH]1	644
COc1cc(F)cc2c1cc(C)n2CCNc1cc(-c2ccc(-c3cncn3C)cc2)ncn1	161
Cc1cc2c(Cl)ccc(Cl)c2n1CCNc1cc(-c2ccc(C(=O)O)c(SC(C)C)c2)ncn1	257
COc1cccc2c1cc(C)n2CCNc1cc(-c2ccc(C(=O)O)c(Oc3ccc(F)cc3)c2)ncn1	768
CCOc1cc(-c2cc(NCCn3c(C)cc4c(Cl)ccc(F)c43)ncn2)cc(Cl)c1C(=O)O	117
CCOc1cc(-c2cc(NCCn3c(C)cc4c(OC)ccc(F)c43)ncn2)ccc1-c1nnn[nH]1	39
COc1cc(-c2ccc(-c3cc(NCCn4c(C)cc5c(OC)cc(F)cc54)ncn3)cc2)ncn1	425
COc1cc(-c2cc(NCCn3c(C)cc4c(OC)ccc(F)c43)ncn2)ccc1-c1nnn[nH]1	162
